Source listed as ChEMBL document CHEMBL3137667.

Conditions: human
# Hepatotoxicity (choleostasis) per record follows
observation type: Hepatotoxicity (choleostasis)

                                   compound  measured_value
0  CC(C(=O)O)c1ccc(C(=O)c2ccccc2)s1 (stereo not given)               2
1  Nc1c2c(nc3ccccc13)CCCC2O (stereo not given)               0
2    CC(=O)c1ccc2c(c1)N(CCCN(C)C)c1ccccc1S2               1
3  O=C(O)C1N=C(c2ccccc2)c2cc(Cl)ccc2NC1=O (stereo not given) [CLORAZEPIC ACID]               3
4  CC(C)CCOc1ccc(NC(=S)Nc2ccc(OCCC(C)C)cc2)cc1 [TIOCARLIDE]               0
5  CNC1Cc2ccccc2N(C)c2ccccc21 (stereo not given)               1
6  COc1ccc(OC[C@H]2CN(C)CC[C@@H]2c2ccccc2)cc1               0
7  CN1C2CCCC1CC(NC(=O)c1nn(C)c3ccccc13)C2 (stereo not given)               0
8  COC(=O)C1=C(C)NC(C)=C(C(=O)OC)C1c1ccccc1[N+](=O)[O-]               7
9  CN1CCN(C(=O)OC2c3nccnc3C(=O)N2c2ccc(Cl)cn2)CC1 (stereo not given)               1

* * *

# Hepatotoxicity (choleostasis) per record follows
Conditions: human, Liver
observation type: Hepatotoxicity (choleostasis)

molecule smiles	measured value
Oc1ncc(N(CCCl)CCCl)c(O)n1	0
CN(C)Cc1ccc(CSCCN/C(=C\[N+](=O)[O-])NCc2ccc3c(c2)OCO3)o1	2
Nc1ccn([C@@H]2O[C@H](CO)[C@@H](O)[C@@H]2O)c(=O)n1	3
c1ccc([C@H]2CN3CCSC3=N2)cc1	0
[H]/N=C(/N)N[C@H]1[C@H](O)[C@@H](O)[C@H](O[C@@H]2O[C@@H](C)[C@](O)(C=O)[C@H]2O[C@@H]2O[C@@H](CO)[C@H](O)[C@@H](O)[C@@H]2NC)[C@@H](N/C(N)=N\[H])[C@@H]1O	1
Clc1cccc(Cl)c1N=C1NCCN1	0
CCCCNC(=N)NC(=N)N	0
O=C1CN(/N=C/c2ccc([N+](=O)[O-])o2)C(=O)N1	27
Nc1ccc(S(=O)(=O)c2ccc(N)cc2)cc1	13

* * *

Conditions: human
# Hepatotoxicity (choleostasis) per record follows

compound	Hepatotoxicity (choleostasis)
CCC(COC(=O)c1cc(OC)c(OC)c(OC)c1)(c1ccccc1)N(C)C (stereo not given)	0
CCN1CCC[C@H]1CNC(=O)c1c(O)c(Cl)cc(Cl)c1OC [RACLOPRIDE]	0
Nc1cc(N2CCCCC2)nc(N)[n+]1[O-]	0
CC(=O)[C@H]1CC[C@H]2[C@@H]3CC[C@H]4C[C@H](O)CC[C@]4(C)[C@H]3C(=O)C[C@]12C.C[C@]12CC[C@@H](O)C[C@@H]1CC[C@H]1[C@@H]3CC[C@H](C(=O)CO)[C@@]3(C)CC(=O)[C@@H]12	0
COc1cc(/C=C/C(=O)O)ccc1O [FERULATE]	1
CNC(=O)OCc1cccc(COC(=O)NC)n1 [PYRICARBATE]	4
NC[C@H]1O[C@H](O[C@H]2[C@H](O)[C@@H](O[C@H]3O[C@H](CO)[C@@H](O)[C@H](N)[C@H]3O)[C@H](N)C[C@@H]2N)[C@H](N)C[C@@H]1O	0
Oc1ccc(Cl)cc1Cc1cc(Cl)ccc1O	1
CCCC(C)(COC(N)=O)COC(=O)NC(C)C (stereo not given)	0
CC[C@H](C)C[C@H](C)CCCCCCCCC(=O)N[C@H]1C[C@@H](O)[C@@H](NCCN)NC(=O)[C@@H]2[C@@H](O)CCN2C(=O)[C@H]([C@H](O)CCN)NC(=O)[C@H]([C@H](O)[C@@H](O)c2ccc(O)cc2)NC(=O)[C@@H]2C[C@@H](O)CN2C(=O)[C@H]([C@@H](C)O)NC1=O	0
O=C(O)P(=O)(O)O	0
CC[C@H]1OC(=O)[C@H](C)[C@@H](O[C@H]2C[C@@](C)(OC)[C@@H](O)[C@H](C)O2)[C@H](C)[C@@H](O[C@@H]2O[C@H](C)C[C@H](N(C)C)[C@H]2O)[C@](C)(O)C[C@@H](C)[C@@H]2N[C@@H](COCCOC)O[C@H]([C@H]2C)[C@]1(C)O	0
CC(C)[C@H](N)C(=O)OCC(CO)OCn1cnc2c(=O)nc(N)[nH]c21 (stereo not given in full)	0
NCC(=O)CCC(=O)O	0
CC(O)(P(=O)(O)O)P(=O)(O)O	0

* * *

# Hepatotoxicity (time to onset) per record follows
Experiment: Times to onset, minimal and maximal, observed in the indexed observations. [column 'DELAI' in source]
Conditions: human
observation type: Hepatotoxicity (time to onset)

>>> print(df.to_string())
                                   compound       measured_value
0  Cc1ccc(S(=O)(=O)NC(=O)NC2CCCCC2)cc1N [METAHEXAMIDE]      4 days - 1 week
1  CCN(CCO)CCCC(C)Nc1ccnc2cc(Cl)ccc12 (centres undefined) [HYDROXYCHLOROQUINE]               1 year
2  CN1CCN(C(=O)OC2c3nccnc3C(=O)N2c2ccc(Cl)cn2)CC1 (centres undefined)             6 months
3  Cc1onc(-c2c(F)cccc2Cl)c1C(=O)N[C@@H]1C(=O)N2[C@@H]1SC(C)(C)[C@@H]2C(=O)O  12 hours - 2 months
4  CCN1CCCC1CNC(=O)c1cc(S(=O)(=O)CC)c(N)cc1OC (centres undefined) [AMISULPRIDE]              2 weeks
5  CN1CCN(C(=S)Nc2ccc(Nc3ccc([N+](=O)[O-])cc3)cc2)CC1    4 days - 2 months
6                                 CCOC(N)=O     1 year - 2 years
7  C[C@]12CCC(=O)C=C1CC[C@@H]1[C@@H]2CC[C@@]2(C)[C@H]1CC[C@]2(C)O    1 week - 24 years
8  COc1c(N2C[C@@H]3CCCN[C@@H]3C2)c(F)cc2c(=O)c(C(=O)O)cn(C3CC3)c12              26 days

* * *

# Hepatotoxicity (time to onset) per record follows
Assay: Times to onset, minimal and maximal, observed in the indexed observations. [column 'DELAI' in source]
Conditions: human
observation type: Hepatotoxicity (time to onset)

In [3]: df
Out[3]:
                                    compound        measured_value
 0  Cc1cn([C@H]2C[C@H](F)[C@@H](CO)O2)c(=O)[nH]c1=O            < 3 months
 1  COc1cc(NC(C)CCCN)c2ncccc2c1 (stereo not drawn)                2 days
 2     Cc1nnc2n1-c1ccc(Cl)cc1C(c1ccccc1)=NC2      3 days - 3 weeks
 3  CC(C(=O)O)c1ccc(N2CC=CC2)c(Cl)c1 (stereo not drawn)       1 week - 1 year
 4  Cc1onc(-c2c(Cl)cccc2Cl)c1C(=O)N[C@@H]1C(=O)N2[C@@H]1SC(C)(C)[C@@H]2C(=O)O     5 days - 2 months
 5  CC1(C)S[C@@H]2[C@H](NC(=O)[C@H](N)c3ccccc3)C(=O)N2[C@H]1C(=O)O      2 days - 2 weeks
 6  N[C@@H](C(=O)N[C@@H]1C(=O)N2C(C(=O)O)=C(Cl)CS[C@H]12)c1ccccc1 [CEFACLOR ANHYDROUS]                8 days
 7  c1ccc(C2(c3ccccc3)CC2C2=NCCN2)cc1 (stereo not drawn)  47 days - 5.5 months
 8  CC[C@H]1[C@@H]2C[C@H]3[C@@H]4N(C)c5ccccc5[C@]45C[C@@H]([C@@H]2[C@H]5O)N3[C@@H]1O       1 day - 4 years
 9  N[C@@H]1[C@H]2CN(c3nc4c(cc3F)c(=O)c(C(=O)O)cn4-c3ccc(F)cc3F)C[C@@H]12      5 days - 4 weeks
10               [N-]=[N+]=O [NITROUS OXIDE]                9 days
11  CCCC(C)C1(CC)C(=O)NC(=S)NC1=O (stereo not drawn)        1 day - 5 days
12  CC[C@@H](CO)NC(=O)[C@@H]1C=C2c3cccc4c3c(cn4C)C[C@H]2N(C)C1 [METHYSERGIDE]               5 years
13  COc1ccccc1OCCNCC(O)COc1cccc2[nH]c3ccccc3c12 (stereo not drawn)              6 months
14  CCCNC(=O)NS(=O)(=O)c1ccc(Cl)cc1 [CHLORPROPAMIDE]     2 weeks - 2 years
15  COc1c(N2CCNC(C)C2)c(F)cc2c(=O)c(C(=O)O)cn(C3CC3)c12 (stereo not drawn)       2 days - 8 days
16  CCC[N+]12[C@H](O)[C@@H](CC)[C@@H]3C[C@H]1[C@@H]1N(C)c4ccccc4[C@]14C[C@H]2C3[C@H]4O (stereo partly drawn)     3 days - 4 months
17  COc1cc2c(c(OC)c1OC)-c1ccc(OC)c(=O)cc1[C@@H](NC(C)=O)CC2      2 hours - 2 days
